Reference for the values: the supplement of paper PMC10307832

# Test system: LOU-NH91
# experiment description: relative viability (nuclei count vs DMSO), 5 days (fraction); higher = more cells survive
# condition details: first compound 0.4 µM
observed property: relative viability

Solved entries (count: 5):
compound | target of assay | observed property | result value
Clc1ccc(Nc2nnc(Cc3ccncc3)c3ccccc23)cc1 [Vatalanib] + CS(=O)(=O)CCNCc1ccc(-c2ccc3ncnc(Nc4ccc(OCc5cccc(F)c5)c(Cl)c4)c3c2)o1 [Lapatinib] (partner 2 µM) | LOU-NH91 | relative viability | 0.802
C[C@@H]1CN(CC(=O)Nc2ccc3c(c2)Cc2cccc(-c4cc(=O)cc(N5CCOCC5)o4)c2S3)C[C@H](C)O1 + CC(C)C[C@H](NC(=O)[C@H](Cc1ccccc1)NC(=O)c1cnccn1)B(O)O [Bortezomib] (partner 0.002 µM) | LOU-NH91 | relative viability | 0.428
C[C@@H]1CN(CC(=O)Nc2ccc3c(c2)Cc2cccc(-c4cc(=O)cc(N5CCOCC5)o4)c2S3)C[C@H](C)O1 + Cc1nc(Nc2ncc(C(=O)Nc3c(C)cccc3Cl)s2)cc(N2CCN(CCO)CC2)n1 [Dasatinib] (partner 0.075 µM) | LOU-NH91 | relative viability | 0.476
COc1cc(N2CCC(C(N)=O)CC2)ccc1Nc1nc(N)c(Cl)c(Nc2ccccc2S(=O)(=O)C(C)C)n1 [HG-5-88-01] + COc1cc2c(Oc3ccc(NC(=O)C4(C(=O)Nc5ccc(F)cc5)CC4)cc3F)ccnc2cc1OCCCN1CCOCC1 [Foretinib] (partner 0.25 µM) | LOU-NH91 | relative viability | 0.872
COc1cc(N2CCC(C(N)=O)CC2)ccc1Nc1nc(N)c(Cl)c(Nc2ccccc2S(=O)(=O)C(C)C)n1 [HG-5-88-01] + CS(=O)(=O)CCNCc1ccc(-c2ccc3ncnc(Nc4ccc(OCc5cccc(F)c5)c(Cl)c4)c3c2)o1 [Lapatinib] (partner 2 µM) | LOU-NH91 | relative viability | 0.594

q: State the recorded relative viability for this entry: COc1cc(N2CCC(C(N)=O)CC2)ccc1Nc1nc(N)c(Cl)c(Nc2ccccc2S(=O)(=O)C(C)C)n1 [HG-5-88-01] + CC(=O)c1c(C)c2cnc(Nc3ccc(N4CCNCC4)cn3)nc2n(C2CCCC2)c1=O [Palbociclib] (partner 0.5 µM)
a: 0.585

q: Look up relative viability: COc1cc(N2CCC(C(N)=O)CC2)ccc1Nc1nc(N)c(Cl)c(Nc2ccccc2S(=O)(=O)C(C)C)n1 [HG-5-88-01] + O=C(c1cc(Cc2n[nH]c(=O)c3ccccc23)ccc1F)N1CCN(C(=O)C2CC2)CC1 [Olaparib] (partner 8 µM)
a: 0.733

q: Dear colleague, I am looking for the recorded relative viability of the following compound: C[C@@H]1CN(CC(=O)Nc2ccc3c(c2)Cc2cccc(-c4cc(=O)cc(N5CCOCC5)o4)c2S3)C[C@H](C)O1 + N=C(N)NC(=N)NCCc1ccccc1 [Phenformin] (partner 250 µM)
a: 0.696

q: Which relative viability is reported for this compound? C[C@@H]1CN(CC(=O)Nc2ccc3c(c2)Cc2cccc(-c4cc(=O)cc(N5CCOCC5)o4)c2S3)C[C@H](C)O1 + CC1(C)CCC(c2ccc(Cl)cc2)=C(CN2CCN(c3ccc(C(=O)NS(=O)(=O)c4ccc(N[C@H](CCN5CCOCC5)CSc5ccccc5)c(S(=O)(=O)C(F)(F)F)c4)cc3)CC2)C1 [Navitoclax] (partner 0.5 µM)
a: 0.702
